# SYSTEM_NAME: Nuclear factor erythroid 2-related factor 2 (Homo sapiens) (UniProt Q16236)
# Sequence (whole entry): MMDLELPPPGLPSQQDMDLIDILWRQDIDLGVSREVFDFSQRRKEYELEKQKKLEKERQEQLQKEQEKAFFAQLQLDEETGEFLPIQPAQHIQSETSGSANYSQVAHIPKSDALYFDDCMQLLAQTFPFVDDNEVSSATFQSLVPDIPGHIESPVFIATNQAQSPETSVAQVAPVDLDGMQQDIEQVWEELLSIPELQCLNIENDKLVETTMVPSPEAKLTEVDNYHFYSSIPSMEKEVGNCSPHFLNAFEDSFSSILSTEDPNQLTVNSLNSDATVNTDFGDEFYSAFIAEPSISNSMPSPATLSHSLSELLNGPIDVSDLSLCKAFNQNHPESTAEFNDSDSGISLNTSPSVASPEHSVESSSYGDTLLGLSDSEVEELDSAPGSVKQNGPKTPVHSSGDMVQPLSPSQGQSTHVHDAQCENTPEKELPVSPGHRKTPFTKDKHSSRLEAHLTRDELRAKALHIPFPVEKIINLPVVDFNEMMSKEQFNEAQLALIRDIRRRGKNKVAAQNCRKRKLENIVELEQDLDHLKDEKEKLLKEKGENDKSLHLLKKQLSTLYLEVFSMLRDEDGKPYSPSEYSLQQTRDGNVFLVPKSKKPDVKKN
# ASSAY_SUMMARY: Activation of Nrf2 (unknown origin) expressed in human HepG2 cells at 10 uM incubated for 6 hrs by ARE-driven luciferase reporter gene assay relative to untreated control
# Assay type: cell-based
fold change (FC) listing for selected compounds.
# print the numeric value only

Observe how each entry below is paired with its result.
# COMPOUND, NUMERIC_READOUT
rows = [
    ("CC1(C)C=Cc2cc(/C=C/C(=O)c3ccc(O)cc3O)ccc2O1", 2.37),
    ("CC(C)=CCc1c(O)ccc(-c2coc3cc(O)c(CC=C(C)C)c(O)c3c2=O)c1O", 1.05),
    ("COc1c(/C=C/C(=O)c2ccc(O)c(CC=C(C)C)c2)ccc(O)c1O", 4.53),
    ("CC(C)=CCc1cc([C@@H]2CC(=O)c3ccc(O)cc3O2)ccc1O", 2.2),
    ("CC1(C)C=Cc2c(cc3occ(-c4ccc(O)cc4)c(=O)c3c2O)O1", 2.17),
]

input: What fold change (FC) value was documented for this compound, O=C1c2ccc(O)cc2OCC1c1ccc(O)c(O)c1 (stereo unspecified) ?
output: 2.12

input: For CC(C)=CCc1cc(/C=C/C(=O)c2ccc(O)cc2O)ccc1O then?
output: 1.87

input: Proceed to CC(C)=CCc1cc2c(=O)cc(-c3ccc4c(c3)C=CC(C)(C)O4)oc2cc1O
output: 1.03

input: Now try COc1ccc2c(c1)OC[C@H]1c3ccc(O)cc3O[C@@H]21 .
output: 1.23

input: And what about the compound C=CC(C)(C)c1cc(/C=C/C(=O)c2ccc(O)cc2)c(OC)c(O)c1O ?
output: 3.09
